propertyLabel: melting point

INSERT INTO assay_data (compound, observedmeasurement) VALUES
  ('CC1(C)[C@@H](CN2CCCS2(=O)=O)CC[C@@]1(C)NCC(=O)N1C[C@@H](F)C[C@H]1C#N [Example 28]', '126 to 128 °C');

Your task in this section: give melting point for each listed record.
1. CC1(NCC(=O)N2C[C@@H](F)C[C@H]2C#N)CCC(CS(=O)(=O)c2ccc(S(C)(=O)=O)cc2)C1(C)C (stereo in doubt) [Example 45]
2. CC1(C)[C@H](CN2CCOCC2)CC[C@]1(C)NCC(=O)N1C[C@@H](F)C[C@H]1C#N [Example 34]
3. CC1(C)[C@H](CN2CCCCS2(=O)=O)CC[C@]1(C)NCC(=O)N1C[C@@H](F)C[C@H]1C#N [Example 30]
4. Cc1noc([C@@H]2CC[C@](C)(NCC(=O)N3C[C@@H](F)C[C@H]3C#N)C2(C)C)n1 [Example 51]
5. CC1(C)[C@H](Cn2cc(CO)nn2)CC[C@]1(C)NCC(=O)N1C[C@@H](F)C[C@H]1C#N [Example 16]
6. CC1(C)[C@H](CS(=O)(=O)c2ccc(S(C)(=O)=O)cc2)CC[C@]1(C)NCC(=O)N1C[C@H](F)C[C@H]1C#N [Example 47]

["211 to 216 °C", "163 to 166 °C", "186 to 190 °C", "160 to 163 °C", "76 to 78 °C", "172 to 175 °C"]

Your task in this section: give melting point for each listed record.
1. CC1(C)[C@@H](NCC(=O)N2C[C@@H](F)C[C@H]2C#N)CC[C@@]1(C)c1nc(-c2cccnc2)no1 [Example 68]
2. CC1(C)[C@@H](CN2CC[C@@H](O)C2)CC[C@@]1(C)NCC(=O)N1C[C@@H](F)C[C@H]1C#N [Example 38]
3. CC1(C)[C@@H](CS(=O)(=O)c2ccc(S(C)(=O)=O)cc2)CC[C@@]1(C)NCC(=O)N1C[C@@H](F)C[C@H]1C#N [Example 42]
4. CC1(C)[C@H](Cc2noc(C(F)(F)F)n2)CC[C@]1(C)NCC(=O)N1C[C@@H](F)C[C@H]1C#N [Example 56]
5. CC1(C)[C@H](Cc2noc(C3CCCCC3)n2)CC[C@]1(C)NCC(=O)N1C[C@@H](F)C[C@H]1C#N [Example 59]
6. CC1(C)[C@H](Cn2nccn2)CC[C@]1(C)NCC(=O)N1C[C@@H](F)C[C@H]1C#N [Example 12]

126 to 130 °C
130 to 135 °C
220 to 224 °C
130 to 131 °C
152 to 153 °C
142 to 144 °C

Your task in this section: give melting point for each listed record.
1. CC1(C)[C@@H](NCC(=O)N2C[C@@H](F)C[C@H]2C#N)CC[C@@]1(C)CCCn1cncn1 [Example 83]
2. CC1(C)[C@@H](CNc2ccc(C(F)(F)F)cn2)CC[C@@]1(C)NCC(=O)N1C[C@@H](F)C[C@H]1C#N [Example 27]
3. CC1(C)[C@@H](Cn2cncn2)CC[C@@]1(C)NCC(=O)N1C[C@@H](F)C[C@H]1C#N [Example 1]
4. CC1(C)[C@@H](NCC(=O)N2C[C@@H](F)C[C@H]2C#N)CC[C@@]1(C)c1nc(-c2cnccn2)no1 [Example 72]
5. CC1(C)[C@H](CS(=O)(=O)c2ccc(S(C)(=O)=O)cc2)CC[C@]1(C)NCC(=O)N1CCC[C@H]1C#N [Example 46]

152 to 154 °C
52 to 58 °C
186 to 188 °C
65 to 70 °C
158 to 160 °C

###

Would you mind telling me the reported melting point of each entry?

The examples below pair each entry with its known result.
INSERT INTO results (structuresmilesstring, propertylabel, observedmeasurement) VALUES
  ('CN1C[C@]2(C)CC[C@](NCC(=O)N3C[C@H](F)C[C@H]3C#N)(C1)C2(C)C', 'melting point', '74 to 79 °C'),
  ('CC1(C)[C@@]2(C)CC[C@]1(NCC(=O)N1CCC[C@H]1C#N)C(=O)OC2', 'melting point', '174 to 177 °C'),
  ('CC(C)(C)c1nc(C[C@@H]2CC[C@](C)(NCC(=O)N3C[C@@H](F)C[C@H]3C#N)C2(C)C)no1', 'melting point', '152 to 154 °C');

Please look at the following molecule next.
According to the records, this molecule CC1(C)[C@H](CNC(=O)C2CCC(F)(F)CC2)CC[C@]1(C)NCC(=O)N1C[C@@H](F)C[C@H]1C#N displays melting point of 189 to 194 °C

###

Molecular target: human recombinant Dipeptidyl peptidase IV enzyme (hrDPP IV) (Homo sapiens, UniProt P27487)
Sequence (P27487 whole entry): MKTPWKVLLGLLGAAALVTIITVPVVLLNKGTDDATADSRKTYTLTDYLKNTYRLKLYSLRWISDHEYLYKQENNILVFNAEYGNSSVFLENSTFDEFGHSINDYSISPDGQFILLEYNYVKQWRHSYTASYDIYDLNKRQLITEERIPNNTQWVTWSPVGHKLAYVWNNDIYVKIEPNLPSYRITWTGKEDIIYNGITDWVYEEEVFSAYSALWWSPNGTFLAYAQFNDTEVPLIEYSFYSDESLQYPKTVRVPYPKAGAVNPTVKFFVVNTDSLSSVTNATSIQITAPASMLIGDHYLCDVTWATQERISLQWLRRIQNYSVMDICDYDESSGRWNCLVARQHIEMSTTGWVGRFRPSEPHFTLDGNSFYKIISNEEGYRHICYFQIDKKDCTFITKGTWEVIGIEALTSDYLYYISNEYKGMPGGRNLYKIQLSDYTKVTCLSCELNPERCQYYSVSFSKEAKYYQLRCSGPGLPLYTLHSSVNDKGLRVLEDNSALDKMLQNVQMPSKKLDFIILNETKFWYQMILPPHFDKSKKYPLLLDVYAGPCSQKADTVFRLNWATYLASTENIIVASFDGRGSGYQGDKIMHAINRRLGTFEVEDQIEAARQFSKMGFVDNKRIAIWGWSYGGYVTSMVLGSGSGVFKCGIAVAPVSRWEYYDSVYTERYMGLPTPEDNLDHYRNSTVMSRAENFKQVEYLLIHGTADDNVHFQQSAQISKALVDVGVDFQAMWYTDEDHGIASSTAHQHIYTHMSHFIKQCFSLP
Test: DPP IV assay, cleavage of H-Gly-Pro-AMC by human recombinant DPP-IV enzyme
propertyLabel: IC50 (nM)
Give bare numbers, in nM.

INSERT INTO results (compound, targetundertest, observedmeasurement) VALUES
  ('CC1(C)[C@@H](NCC(=O)N2C[C@@H](F)C[C@H]2C#N)CC[C@@]1(C)CCCn1cncn1', 'human recombinant Dipeptidyl peptidase IV enzyme (hrDPP IV) (Homo sapiens, UniProt P27487)', 4.03),
  ('CC1(C)[C@H](CN2CCCS2(=O)=O)CC[C@]1(C)NCC(=O)N1C[C@@H](F)C[C@H]1C#N', 'human recombinant Dipeptidyl peptidase IV enzyme (hrDPP IV) (Homo sapiens, UniProt P27487)', 7.61);

Your task in this section: give IC50 for each listed record.
1. CC1(C)[C@H](Cn2cncn2)CC[C@]1(C)NCC(=O)N1CCC[C@H]1C#N [Example 6]
2. CC1(C)[C@@H](Cn2ccnn2)CC[C@@]1(C)NCC(=O)N1C[C@@H](F)C[C@H]1C#N
3. CC1(C)[C@@H](NCC(=O)N2C[C@@H](F)C[C@H]2C#N)CC[C@@]1(C)c1nc(-c2ccncc2)no1
4. CC1(C)[C@H](Cn2cncn2)CC[C@]1(C)NCC(=O)N1CCC[C@H]1C#N [Example 7, methanesulfonate]
5. CC1(C)[C@H](Cn2cc(CO)nn2)CC[C@]1(C)NCC(=O)N1C[C@@H](F)C[C@H]1C#N
6. CC1(C)[C@H](CNS(=O)(=O)c2ccc(F)cc2)CC[C@]1(C)NCC(=O)N1C[C@@H](F)C[C@H]1C#N

[123, 232, 26.7, 99.8, 32.5, 105]

According to the records, this compound CC1(C)[C@H](Cc2noc(-c3ccncc3)n2)CC[C@]1(C)NCC(=O)N1C[C@@H](F)C[C@H]1C#N displays IC50 of 19.2

###

Would you mind telling me the reported pIC50 of each entry?
Target: human recombinant Dipeptidyl peptidase IV enzyme (hrDPP IV) (Homo sapiens, UniProt P27487)
Experiment: DPP IV assay, cleavage of H-Gly-Pro-AMC by human recombinant DPP-IV enzyme
Give bare numbers, as −log10 of the molar value.

The examples below pair each entry with its known result.
INSERT INTO results (molecule, observedmeasurement) VALUES
  ('Cc1noc([C@]2(C)CC[C@H](NCC(=O)N3C[C@@H](F)C[C@H]3C#N)C2(C)C)n1', 7.26),
  ('CC1(C)[C@H](CNc2ccc(C#N)cn2)CC[C@]1(C)NCC(=O)N1C[C@@H](F)C[C@H]1C#N', 7.53),
  ('CC1(C)[C@H](CN2CCOCC2)CC[C@]1(C)NCC(=O)N1C[C@@H](F)C[C@H]1C#N', 8.05),
  ('Cc1noc([C@@]2(C)CC[C@@H](NCC(=O)N3C[C@@H](F)C[C@H]3C#N)C2(C)C)n1', 7.39),
  ('CC1(C)[C@@H](Cn2nccn2)CC[C@@]1(C)NCC(=O)N1C[C@@H](F)C[C@H]1C#N', 6.67);

Your task in this section: give pIC50 for each listed record.
1. CC1(C)[C@@H](CN2CCOCC2)CC[C@@]1(C)NCC(=O)N1C[C@@H](F)C[C@H]1C#N
2. CC1(C)[C@H](Cn2nccn2)CC[C@]1(C)NCC(=O)N1C[C@@H](F)C[C@H]1C#N
3. CC1(C)[C@H](NCC(=O)N2C[C@@H](F)C[C@H]2C#N)CC[C@]1(C)c1nc(-c2cccnc2)no1

1: 6.60; 2: 7.43; 3: 7.73

Your task in this section: give pIC50 for each listed record.
1. CC1(C)[C@@H](Cn2cncn2)CC[C@@]1(C)NCC(=O)N1C[C@@H](F)C[C@H]1C#N
2. CC1(C)[C@H](NCC(=O)N2C[C@@H](F)C[C@H]2C#N)CC[C@]1(C)c1nc(-c2ccncc2)no1
3. CC1(C)[C@@H](Cn2cncn2)CC[C@@]1(C)NCC(=O)N1CCC[C@H]1C#N [Example 9]
4. CC1(C)[C@@H](CS(=O)(=O)c2ccc(S(C)(=O)=O)cc2)CC[C@@]1(C)NCC(=O)N1C[C@@H](F)C[C@H]1C#N

6.65
7.64
6.11
7.04
